Tested on: CCD-34Lu normal human lung fibroblast cells
assay protocol: MTT cytotoxicity on CCD-34Lu healthy cells
Assay type: cell-based
test conditions: Homo sapiens, Fibroblast, 48 h, mean ± standard deviation, n = 3, – = Not detected
The entries below are paired with their reported IC50.

{"molecule": "COc1cccc2c1C(=O)c1c(O)c3c(c(O)c1C2=O)C[C@@](O)(C(=O)CO)C[C@@H]3O[C@H]1C[C@H](N)[C@H](O)[C@H](C)O1 [Doxorubicin, doxorubicin, reference compound]", "qualifying sign": "=", "IC50 / µM": 34}
{"molecule": "C[C@@H]1O[C@@H](O[C@H]2[C@H](O[C@H]3CC[C@@]4(C)C(CC[C@]5(C)C4CC=C4C6CC(C)(C)CC[C@]6(C(=O)O[C@@H]6O[C@H](CO[C@@H]7O[C@H](CO)[C@@H](O)[C@H](O)[C@H]7O)[C@@H](O)[C@H](O)[C@H]6O)CC[C@]45C)[C@]3(C)CO)OC[C@@H](O)[C@@H]2O)[C@H](O)[C@H](O)[C@H]1O (some centres unmarked) [Compound 3]", "qualifying sign": ">", "IC50 / µM": 46.5}

---

Test system: HepG-2 human hepatocellular carcinoma cells
assay protocol: MTT cytotoxicity on HepG-2
Format: cell-based
test conditions: Homo sapiens, HepG2, 48 h, mean ± standard deviation, n = 3, – = Not detected
pIC50: −log10 of the molar value.

{"compound": "C[C@@H]1O[C@@H](O[C@H]2[C@H](O[C@H]3CC[C@@]4(C)C(CC[C@]5(C)C4CC=C4C6CC(C)(C)CC[C@]6(C(=O)O)CC[C@]45C)C3(C)C)O[C@H](CO)[C@H](O)[C@@H]2O)[C@H](O)[C@H](O)[C@H]1O (stereo partly shown)", "pIC50": "< 4.18"}
{"compound": "C[C@@H]1O[C@@H](O[C@H]2[C@H](O[C@H]3CC[C@@]4(C)C(CC[C@]5(C)C4CC=C4C6CC(C)(C)CC[C@]6(C(=O)O)CC[C@]45C)[C@]3(C)CO)OC[C@@H](O)[C@@H]2O)[C@H](O)[C@H](O)[C@H]1O (stereo partly shown)", "pIC50": "< 4.18"}
{"compound": "C[C@@H]1O[C@@H](O[C@H]2[C@H](O[C@H]3CC[C@@]4(C)C(CC[C@]5(C)C4CC=C4C6CC(C)(C)CC[C@]6(C(=O)O[C@@H]6O[C@H](CO[C@@H]7O[C@H](CO)[C@@H](O)[C@H](O)[C@H]7O)[C@@H](O)[C@H](O)[C@H]6O)CC[C@]45C)[C@]3(C)CO)O[C@H](CO)[C@H](O)[C@@H]2O)[C@H](O)[C@H](O)[C@H]1O (stereo partly shown)", "pIC50": "< 4.34"}
{"compound": "COc1cccc2c1C(=O)c1c(O)c3c(c(O)c1C2=O)C[C@@](O)(C(=O)CO)C[C@@H]3O[C@H]1C[C@H](N)[C@H](O)[C@H](C)O1 [Doxorubicin, doxorubicin, reference compound]", "pIC50": 4.43}

---

The entries below are paired with their reported IC50.
Test system: CCD-34Lu normal human lung fibroblast cells
assay protocol: MTT cytotoxicity on CCD-34Lu healthy cells
Format: cell-based
test conditions: Homo sapiens, Fibroblast, 48 h, mean ± standard deviation, n = 3, – = Not detected

{"compound": "C[C@@H]1O[C@@H](O[C@H]2[C@H](O[C@H]3CC[C@@]4(C)C(CC[C@]5(C)C4CC=C4C6CC(C)(C)CC[C@]6(C(=O)O)CC[C@]45C)C3(C)C)O[C@H](CO)[C@H](O)[C@@H]2O)[C@H](O)[C@H](O)[C@H]1O (some centres unmarked) [Compound 2a]", "test target": "CCD-34Lu normal human lung fibroblast cells", "IC50": "> 65.4 µM"}
{"compound": "C[C@@H]1O[C@@H](O[C@H]2[C@H](O[C@H]3CC[C@@]4(C)C(CC[C@]5(C)C4CC=C4C6CC(C)(C)CC[C@]6(C(=O)O)CC[C@]45C)[C@]3(C)CO)OC[C@@H](O)[C@@H]2O)[C@H](O)[C@H](O)[C@H]1O (some centres unmarked) [Compound 3a]", "test target": "CCD-34Lu normal human lung fibroblast cells", "IC50": "> 66.6 µM"}
{"compound": "C[C@@H]1O[C@@H](O[C@H]2[C@H](O[C@H]3CC[C@@]4(C)C(CC[C@]5(C)C4CC=C4C6CC(C)(C)CC[C@]6(C(=O)O[C@@H]6O[C@H](CO[C@@H]7O[C@H](CO)[C@@H](O)[C@H](O)[C@H]7O)[C@@H](O)[C@H](O)[C@H]6O)CC[C@]45C)[C@]3(C)CO)O[C@H](CO)[C@H](O)[C@@H]2O)[C@H](O)[C@H](O)[C@H]1O (some centres unmarked) [Compound 4]", "test target": "CCD-34Lu normal human lung fibroblast cells", "IC50": "> 45.2 µM"}
{"compound": "C[C@@H]1O[C@@H](O[C@H]2[C@H](O[C@H]3CC[C@@]4(C)C(CC[C@]5(C)C4CC=C4C6CC(C)(C)CC[C@]6(C(=O)O)CC[C@]45C)[C@]3(C)CO)O[C@H](CO)[C@H](O)[C@@H]2O)[C@H](O)[C@H](O)[C@H]1O (some centres unmarked) [Compound 1]", "test target": "CCD-34Lu normal human lung fibroblast cells", "IC50": "> 64 µM"}
{"compound": "C[C@@H]1O[C@@H](O[C@H]2[C@H](O[C@H]3CC[C@@]4(C)C(CC[C@]5(C)C4CC=C4C6CC(C)(C)CC[C@]6(C(=O)O[C@@H]6O[C@H](CO[C@@H]7O[C@H](CO)[C@@H](O)[C@H](O)[C@H]7O)[C@@H](O)[C@H](O)[C@H]6O)CC[C@]45C)C3(C)C)O[C@H](CO)[C@H](O)[C@@H]2O)[C@H](O)[C@H](O)[C@H]1O (some centres unmarked) [Compound 2]", "test target": "CCD-34Lu normal human lung fibroblast cells", "IC50": "> 45.9 µM"}
